Catalogue of IC50 readings, one per entry.
target: ratP2X7 (Rattus norvegicus, UniProt Q64663); experiment: P2X7 channel calcium-influx assay (Fluo-8, FLIPR TETRA), rat P2X7; settings: HEK-293 cells stably transfected with P2X7; Bz-ATP at EC80; low divalent cation buffer; read-out: ratP2X7 (activity range)

Here's what some known entries look like.
Cn1nc(Cc2ccc(F)cc2Cl)n(CC2CCC(F)(F)C2)c1=O (centres unmarked) [Example 10]    200 to 1000 nM
Cn1nc(Cc2c(F)cccc2Cl)n(CC2CC3C(C2)C3(F)F)c1=O (centres unmarked) [Example 5]    < 200 nM
CCn1nc(Cc2ccccc2Cl)n(CC2CCC(F)(F)CC2)c1=O [Example 63]    < 200 nM
Cn1nc(Cc2ccccc2C(F)(F)F)n(CCC2CCC(C)(C)CC2)c1=O [Example 49]    10000 to 30000 nM
Cn1nc(Cc2c(F)cccc2Cl)n(CCN2CCOCC2)c1=O [Example 22]    10000 to 30000 nM
Cn1nc(Cc2ccccc2F)n(CC2CCCCC2(C)C)c1=O (centres unmarked) [Example 32]    < 200 nM

Recorded IC50 for Cn1nc(Cc2c(F)cccc2Cl)n(Cc2ccc(F)cc2)c1=O [Example 1] , please?
200 to 1000 nM

Can you handle Cn1nc(Cc2ccccc2F)n(CC2CCC(F)(F)CC2)c1=O [Example 26] next?
< 200 nM

* * *

Catalogue of IC50 readings, one per entry.
target: UniProtKB Q99572; assay: P2X7 channel calcium-influx assay (Fluo-8, FLIPR TETRA), human P2X7; details: HEK-293 cells stably transfected with P2X7; Bz-ATP at EC80; low divalent cation buffer; read-out: humanP2X7 (activity range)

Here's what some known entries look like.
O=c1n(CCC(F)(F)F)nc(Cc2c(F)cccc2Cl)n1CC1CCC(F)(F)CC1 [Example 57]    < 0.2 µM
O=c1n(CC2CC2)nc(Cc2c(F)cccc2Cl)n1CC1CCC(F)(F)CC1 [Example 43]    < 0.2 µM
Cc1ncccc1Cn1c(CC2CCCCC2)nn(C)c1=O [Example 31]    1 to 10 µM
Cn1nc(Cc2ccccc2F)n(CC2CCCCC2)c1=O [Example 27]    1 to 10 µM

Kindly consider the entry below.
Recorded IC50 for Cn1nc(Cc2ccc(F)cc2)n(Cc2cc(-c3ncc(F)cn3)ccc2Cl)c1=O [Example 29] , please?
10 to 30 µM

* * *

Biological target: ratP2X7 (Rattus norvegicus, UniProt Q64663)
Sequence (Q64663 1-595): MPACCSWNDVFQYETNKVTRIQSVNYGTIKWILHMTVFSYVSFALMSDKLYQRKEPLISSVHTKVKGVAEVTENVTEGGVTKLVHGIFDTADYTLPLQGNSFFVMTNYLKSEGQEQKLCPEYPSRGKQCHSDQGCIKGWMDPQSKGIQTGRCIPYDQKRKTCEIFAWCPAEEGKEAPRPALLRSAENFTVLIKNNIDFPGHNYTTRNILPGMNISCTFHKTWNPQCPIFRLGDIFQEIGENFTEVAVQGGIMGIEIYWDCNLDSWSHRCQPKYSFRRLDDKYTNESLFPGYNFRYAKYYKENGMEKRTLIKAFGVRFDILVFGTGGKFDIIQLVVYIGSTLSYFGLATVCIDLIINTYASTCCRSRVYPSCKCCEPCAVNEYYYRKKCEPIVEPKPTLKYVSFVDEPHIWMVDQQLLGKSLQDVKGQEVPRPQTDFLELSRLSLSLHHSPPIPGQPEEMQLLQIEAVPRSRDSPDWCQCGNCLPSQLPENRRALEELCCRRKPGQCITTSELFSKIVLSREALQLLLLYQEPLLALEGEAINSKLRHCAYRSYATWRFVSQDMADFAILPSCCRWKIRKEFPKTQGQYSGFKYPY
Experiment: P2X7 channel calcium-influx assay (Fluo-8, FLIPR TETRA), rat P2X7
Conditions: HEK-293 cells stably transfected with P2X7; Bz-ATP at EC80; low divalent cation buffer; read-out: ratP2X7 (activity range)
PROPERTY: IC50

Here's what some known entries look like.
O=c1n(CCC(F)(F)F)nc(Cc2c(F)cccc2Cl)n1CC1CCC(F)(F)CC1    < 0.2 µM
O=c1n(CC(F)(F)F)nc(Cc2c(F)cccc2Cl)n1CC1CCCCCC1    < 0.2 µM

Recorded IC50 for O=c1n(CC(F)F)nc(Cc2c(F)cccc2Cl)n1CC1CCC(F)(F)CC1 , please?
< 0.2 µM

Can you handle Cn1nc(CC2CCCCC2)n(Cc2cc(-c3ncc(F)cn3)ccc2Cl)c1=O next?
0.2 to 1 µM

Can you handle Cn1nc(Cc2ccccc2C(F)(F)F)n(CC2CCCCC2)c1=O next?
< 0.2 µM

Can you handle Cn1nc(CC2CCCCC2)n(Cc2c(F)cccc2Cl)c1=O next?
< 0.2 µM

Can you handle O=c1n(CC2CC2)nc(Cc2c(F)cccc2Cl)n1CC1CCC(F)(F)CC1 next?
< 0.2 µM

Can you handle Cn1nc(Cc2c(F)cccc2Cl)n(CCN2CCOCC2(C)C)c1=O next?
1 to 10 µM

Can you handle O=c1n(CC(F)(F)F)nc(Cc2c(F)cccc2Cl)n1CC1CCC(F)(F)CC1 next?
< 0.2 µM

Can you handle CCn1nc(CC2CCCCCC2)n(Cc2c(F)cccc2Cl)c1=O next?
< 0.2 µM

Can you handle O=c1n(CC2CC2)nc(Cc2c(F)cccc2Cl)n1CC1CCC(F)(F)C1 (stereo not shown) next?
< 0.2 µM

Can you handle O=c1n(CC2CC2)nc(Cc2c(F)cccc2Cl)n1CC1CCC(C(F)(F)F)CC1 (stereo not shown) next?
< 0.2 µM

Can you handle Cn1nc(Cc2c(F)cccc2Cl)n(CCO)c1=O next?
10 to 30 µM

Can you handle Cn1nc(Cc2ccccc2C(F)(F)F)n(CCC2CCC(F)(F)CC2)c1=O next?
0.2 to 1 µM

Can you handle Cn1nc(Cc2c(F)cccc2Cl)n(CC2CCCCC2(C)C)c1=O (stereo not shown) next?
< 0.2 µM

Can you handle O=c1n(CC(F)(F)F)nc(Cc2ccccc2Cl)n1CC1CCCCCC1 next?
< 0.2 µM

Can you handle Cn1nc(Cc2c(F)cccc2Cl)n(CCC2CCC(F)(F)CC2)c1=O next?
< 0.2 µM

Can you handle Cn1nc(Cc2ccc(F)cc2Cl)n(CCC2CCC(C)(C)CC2)c1=O next?
1 to 10 µM

Can you handle Cn1nc(Cc2ccc(F)cc2)n(Cc2cc(-c3ncc(F)cn3)ccc2Cl)c1=O next?
10 to 30 µM

* * *

Biological target: ratP2X7 (Rattus norvegicus)
Test: P2X7 channel calcium-influx assay (Fluo-8, FLIPR TETRA), rat P2X7
Settings: HEK-293 cells stably transfected with P2X7; Bz-ATP at EC80; low divalent cation buffer; read-out: ratP2X7 (activity range)
Experimental: Extracellular binding of Bz-ATP to P2X7 receptor opens the channel and allows Ca^2+ influx into the cells. This Ca^2+ entry was measured in HEK-293 cells stably transfected with P2X7 receptor using Screen Quest™ Fluo-8 No Wash Calcium Assay Kit (AAt Bioquest®, cat. 36316). […] Its fluorescence increases upon binding to calcium. When HEK-293/P2X7 cells are stimulated with Bz-ATP, Ca^2+ enters the cells and the fluorescence of Fluo-8 NW increases. […]
pIC50: −log10 of the molar value.
PROPERTY: pIC50

Here's what some known entries look like.
O=c1n(CC(F)(F)F)nc(CC2CCC(F)(F)CC2)n1Cc1c(F)cccc1Cl [Example 70]    > 6.70
Cn1nc(Cc2c(F)cccc2Cl)n(CC2(C)CCCCCC2)c1=O [Example 56]    5.00 to 6.00
Cn1nc(Cc2c(F)cccc2Cl)n(CC2CCC(C(F)(F)F)CC2)c1=O (centres unmarked) [Example 7]    > 6.70
Cn1nc(Cc2ccc(F)cc2Cl)n(Cc2ccc(F)cc2)c1=O [Example 8]    5.00 to 6.00

Kindly consider the entry below.
Recorded pIC50 for Cn1nc(Cc2c(F)cccc2Cl)n(CC2CCC3(CC2)CC3)c1=O [Example 14] , please?
> 6.70

* * *

Catalogue of pIC50 readings, one per entry.
molecular target: UniProt Q99572; experiment: human P2X7 channel assay by automated patch-clamp (QPatch 16X); settings: HEK-293 cells expressing P2X7; current evoked by 100 microM BzATP; whole-cell, held at -80 mV; read-out: human Q-Patch (activity range)
pIC50: −log10 of the molar value.

Here's what some known entries look like.
Cn1nc(Cc2ccc(F)cc2Cl)n(CCC2CCC(F)(F)CC2)c1=O    6.00 to 7.00
Cn1nc(CC2CCCCC2)n(Cc2cc(-c3ncc(F)cn3)ccc2Cl)c1=O    5.00 to 6.00

Recorded pIC50 for Cn1nc(Cc2c(F)cccc2Cl)n(CC2CCC(F)(F)CC2)c1=O , please?
7.00 to 8.00

Can you handle Cn1nc(Cc2ccccc2F)n(CC2CCC(C(F)(F)F)CC2)c1=O (stereo not drawn) next?
6.00 to 7.00

Can you handle CCn1nc(Cc2ccccc2Cl)n(CC2CCC(F)(F)CC2)c1=O next?
7.00 to 8.00

Data origin, for the record: patent US20240368092A1
